STUDY TARGET: Mcl-1
ASSAY INFO: Binding of synthetic peptide to target protein by surface plasmon resonance (SPR, Biacore T200)
CONDITION PARAMETERS: 25° C., immobilized Mcl-1, Table 51, read-out: Binding evaluation result (KD)
pKd: −log10 of the molar value.
MEASUREMENT LABEL: pKd

MOLECULE | VAL
CC(C)C[C@@H]1NC(=O)[C@H](C(C)C)NC(=O)[C@H](CO)NC(=O)[C@H](Cc2ccccc2)NC(=O)[C@H](C)NC(=O)[C@H](Cc2c[nH]c3ccccc23)NC(=O)[C@@H]2CSC(=N2)c2cccc(n2)C[C@H](C(N)=O)NC(=O)[C@H](Cc2c[nH]c3ccccc23)NC(=O)[C@H](C(C)C)NC(=O)[C@@H]2CCCN2C(=O)[C@H](Cc2ccccc2)NC(=O)[C@H](Cc2c[nH]c3ccccc23)NC(=O)[C@@H]2CCCN2C(=O)[C@H](Cc2c[nH]c3ccccc23)NC1=O [Cyclic peptide a-5-2] | ≤ 4.30

----------
Kd listing for selected compounds.
STUDY TARGET: Mcl-1
ASSAY INFO: Binding of synthetic peptide to target protein by surface plasmon resonance (SPR, Biacore T200)
CONDITION PARAMETERS: 25° C., immobilized Mcl-1, Table 51, read-out: Binding evaluation result (KD)
Protocol: Preparation of Target Protein […] An SPR experiment for analyzing the interaction of a synthetic peptide with Mel-1 was carried out at 25° C. using Biacore T200 (manufactured by GE Healthcare Inc.). The synthetic peptide was added to the immobilized protein, and the interaction therebetween was evaluated. […] Binding of the synthetic peptide to the target protein was evaluated in the same manner as described above.
Starred links: 1 amine or outer side, 2 acyl side, 3 side chain; linkers in the order of their positions; H or OH if unused. Positions of bridges follow the written chain, without caps; N, C: chain ends. Non-standard residues stand in square brackets, D forms with d. Residues, ends and D or L forms follow the SMILES beside them. ξ: configuration not given here. 2Pal(6-thiazolin-2-yl-4R-CO) = O=C([C@H](Cc1cccc(C2=N[C@H](C(=O)[*:3])CS2)n1)N[*:1])[*:2]; Ile(3ξ) = CCC(C)[C@H](N)C(=O)O

COMPOUND | STUDY TARGET | Kd
CC(C)C[C@@H]1NC(=O)[C@H](Cc2ccccc2)NC(=O)[C@H](C)NC(=O)[C@@H]2CCCN2C(=O)[C@H](Cc2c[nH]c3ccccc23)NC(=O)[C@H](CC(C)C)NC(=O)[C@@H](CS)NC(=O)[C@H](C)NC(=O)C(Cc2c[nH]c3ccccc23)NC(=O)[C@H](CO)NC(=O)C(CCCNC(=N)N)NC(=O)[C@@H]2CSC(=N2)c2cccc(n2)C[C@H](C(N)=O)NC(=O)[C@H](Cc2ccc(O)cc2)NC(=O)[C@H](Cc2c[nH]c3ccccc23)NC1=O (some centres unmarked) [Cyclic peptide a-5-1] | Mcl-1 | ≥ 50 µM
CC(C)C[C@@H]1NC(=O)CNC(=O)[C@@H]2CCCN2C(=O)[C@H](CCC(=O)O)NC(=O)[C@H](Cc2ccccc2)NC(=O)[C@H](CO)NC(=O)[C@@H]2CSC(=N2)c2cccc(n2)C[C@@H](C(N)=O)NC(=O)[C@H](CC(C)C)NC(=O)[C@H](C(C)C)NC(=O)[C@H](CCCNC(=N)N)NC(=O)[C@H](Cc2ccccc2)NC(=O)[C@H](CC(C)C)NC(=O)[C@H](Cc2c[nH]c3ccccc23)NC(=O)[C@H](Cc2c[nH]c3ccccc23)NC1=O [Cyclic peptide a-5-5] (SFEPGLWWLFRVL[2Pal(6-thiazolin-2-yl-4R-CO)]-NH2; lactam N-14) | Mcl-1 | < 50 µM
CCC(C)[C@@H]1NC(=O)[C@@H]2CCCN2C(=O)[C@H](Cc2c[nH]c3ccccc23)NC(=O)[C@H](CC(C)C)NC(=O)[C@H](CC(C)C)NC(=O)[C@H](C(C)C)NC(=O)[C@H](Cc2c[nH]c3ccccc23)NC(=O)[C@@H]2CCCN2C(=O)[C@@H]2CSC(=N2)c2cccc(n2)C[C@@H](C(N)=O)NC(=O)[C@H](CC(C)C)NC(=O)[C@H](CO)NC(=O)[C@@H]2CCCN2C(=O)[C@H](C(C)C)NC(=O)[C@H](CC(C)C)NC1=O (stereo partly drawn) [Cyclic peptide a-5-7] (PWVLLWP[Ile(3ξ)]LVPSL[2Pal(6-thiazolin-2-yl-4R-CO)]-NH2; lactam N-14) | Mcl-1 | ≥ 50 µM
CC(C)C[C@@H]1NC(=O)[C@H](C)NC(=O)[C@H](Cc2ccccc2)NC(=O)[C@H](C)NC(=O)[C@@H]2CCCN2C(=O)[C@H](Cc2c[nH]c3ccccc23)NC(=O)[C@H](CC(C)C)NC(=O)[C@H](CS)NC(=O)[C@H](C)NC(=O)[C@H](Cc2c[nH]c3ccccc23)NC(=O)[C@@H]2CSC(=N2)c2cccc(n2)C[C@@H](C(N)=O)NC(=O)[C@H](CC(C)C)NC(=O)[C@H](Cc2c[nH]c3ccccc23)NC(=O)[C@H](CO)NC1=O [Cyclic peptide a-5-8] (WACLWPAFALSWL[2Pal(6-thiazolin-2-yl-4R-CO)]-NH2; lactam N-14) | Mcl-1 | ≥ 50 µM
CC(C)C[C@@H]1NC(=O)[C@H](C(C)C)NC(=O)[C@H](CO)NC(=O)[C@H](Cc2c[nH]c3ccccc23)NC(=O)[C@@H]2CSC(=N2)c2cccc(n2)C[C@@H](C(N)=O)NC(=O)[C@H](CO)NC(=O)[C@H](C(C)C)NC(=O)[C@H](CO)NC(=O)[C@@H]2CCCN2C(=O)[C@H](C(C)C)NC(=O)[C@H](Cc2ccccc2)NC(=O)[C@H](Cc2c[nH]c3ccccc23)NC(=O)[C@@H]2CCCN2C(=O)[C@H](Cc2c[nH]c3ccccc23)NC1=O [Cyclic peptide a-5-4] (WSVLWPWFVPSVS[2Pal(6-thiazolin-2-yl-4R-CO)]-NH2; lactam N-14) | Mcl-1 | < 50 µM
